Settings: in ethyl acetate, 333.17 K
Readout Label: solubility (mole fraction)
Answers are plain numbers.

Exam item: Find the recorded solubility (mole fraction) belonging to "O=C(O)c1cccc([N+](=O)[O-])c1C(=O)O" and report it.
Marked response: 0.0156

----------
Conditions: in methyl acetate, 283.26 K
Readout Label: solubility (mole fraction)
Give bare numbers.

Exam item: Query (molecule): "O=C(O)c1cccc([N+](=O)[O-])c1C(=O)O" ; field requested: solubility (mole fraction)
Marked response: 0.0343

----------
Conditions: in ethyl acetate, 323.16 K
Readout Label: solubility (mole fraction)
Numbers only.

Exam item: Find the recorded solubility (mole fraction) belonging to "O=C(O)c1cccc([N+](=O)[O-])c1C(=O)O" and report it.
Marked response: 0.0134
